Quick reference: GTP binding activity of the listed items.
- assay system: GTPase HRas (Homo sapiens)
- assay name: HRas wt fluorescent GTP binding changes, either direction – biochemical, wildtype, bead-based flow cytometry, multiplex, primary screen (AID 759);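 also: 0% = unlabeled GTP competition control and 100% = no-compound control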
- particulars: GST-Ras wt beads, Bodipy-FL-GTP binding, at 10 µM, actives lie on both sides
Among all 190,000 compounds or so, about 270 (0.14%) were called active. Not shown: some 2% with an inconclusive outcome. Many of the other results were omitted from the sample, so actives are more common in it than they were.
Just the number please, in %, no unit attached.

Examples with their reported GTP binding activity follow.
CCn1c(SCc2cc(=O)n3ccsc3n2)nc2ccccc21 : 102
O=C(Nc1ccccc1F)c1ccccc1-c1ccc(C(F)(F)F)cc1 : 104
CCOc1ccc(OCc2cccc(C(=O)N(CC)CC)c2)cc1 : 98
Cc1ccc(NC(=O)c2oc3ccccc3c2C)c([N+](=O)[O-])c1 : 101
O=C1N/C(=N\N=C\c2ccco2)SC1Cc1ccc(F)cc1 (centres undefined) : 97
CCCN(CC(=O)Nc1ccc(C(N)=O)cc1)CC(=O)Nc1ccccc1C : 96

Input: Report measured GTP binding activity on GTPase HRas (Homo sapiens); entry: CSc1nsc(SC)c1NC(=O)OC1CCCCC1
Output: 39

Input: Report measured GTP binding activity on GTPase HRas (Homo sapiens); entry: CCC(=O)OCCNc1nc(-c2ccccc2)nc2ccccc12
Output: 98

Input: Report measured GTP binding activity on GTPase HRas (Homo sapiens); entry: CN(CC(=O)NC1CCCC1)S(=O)(=O)c1cnc[nH]1
Output: 104

Input: Report measured GTP binding activity on GTPase HRas (Homo sapiens); entry: O=C(NCc1ccncc1)C(=O)NCc1ccco1
Output: 97

Input: Report measured GTP binding activity on GTPase HRas (Homo sapiens); entry: O=C1CCC/C(=N\NC(=O)NC2CCCCC2)C1
Output: 97

Input: Report measured GTP binding activity on GTPase HRas (Homo sapiens); entry: CCOCC(=O)Nc1ncc(S(=O)(=O)c2ccc([N+](=O)[O-])cc2)s1
Output: 91

Input: Report measured GTP binding activity on GTPase HRas (Homo sapiens); entry: COc1cccc(C(=O)Nc2cccnc2)c1OC
Output: 98

Input: Report measured GTP binding activity on GTPase HRas (Homo sapiens); entry: COc1ccccc1CC(NC(C)=O)C(=O)NC1CCN(C(=O)Nc2ccccc2Cl)CC1 (centres undefined)
Output: 101

Input: Report measured GTP binding activity on GTPase HRas (Homo sapiens); entry: COc1c(C)cc(C(=O)C2CCCN(S(=O)(=O)c3c(C)noc3C)C2)cc1C (centres undefined)
Output: 96

Input: Report measured GTP binding activity on GTPase HRas (Homo sapiens); entry: CCOC(=O)C1(CCOC)CCN(Cc2ccc(C(=O)OC)cc2)CC1
Output: 98

Input: Report measured GTP binding activity on GTPase HRas (Homo sapiens); entry: COc1cccc(NCCC(=O)c2cccc([N+](=O)[O-])c2)c1
Output: 97

Input: Report measured GTP binding activity on GTPase HRas (Homo sapiens); entry: N#CC1=C(N)Oc2[nH]c(=S)[nH]c(=O)c2C12C(=O)Nc1ccccc12 (centres undefined)
Output: 96

Input: Report measured GTP binding activity on GTPase HRas (Homo sapiens); entry: O=C(/C=C\c1cn(-c2ccccc2)nc1-c1cccs1)N1CCOCC1
Output: 103

Input: Report measured GTP binding activity on GTPase HRas (Homo sapiens); entry: COC(=O)c1cccnc1NC(=S)NC(C)C
Output: 95

Input: Report measured GTP binding activity on GTPase HRas (Homo sapiens); entry: CN1CCN(CCCCOc2ccccc2-c2ccccc2)CC1
Output: 99

Input: Report measured GTP binding activity on GTPase HRas (Homo sapiens); entry: Cc1ccc(CC(=O)Nc2cccc(C#N)c2)cc1
Output: 98

Input: Report measured GTP binding activity on GTPase HRas (Homo sapiens); entry: COc1ccc(NC(=O)COC(=O)c2ccncc2)c(OC)c1
Output: 97

Input: Report measured GTP binding activity on GTPase HRas (Homo sapiens); entry: CSc1ncccc1C(=O)NC1CCCCCC1
Output: 98

* * *

- assay system: GTPase HRas (Homo sapiens)
- assay name: HRas wt fluorescent GTP binding changes, either direction – biochemical, wildtype, bead-based flow cytometry, multiplex, primary screen (AID 759);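 also: 0% = unlabeled GTP competition control and 100% = no-compound control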
- particulars: GST-Ras wt beads, Bodipy-FL-GTP binding, at 10 µM, actives lie on both sides
Out of some 190,000 compounds screened, about 270 (0.14%) were called active. About 2% were inconclusive and are not listed. The entries come from a sample that favours actives as a whole.
Quick reference: GTP binding activity of the listed items.
Just the number please, in %, no unit attached.

Examples with their reported GTP binding activity follow.
NS(=O)(=O)c1ccc(NC(=S)NNC(=O)c2cccs2)cc1 : 97
COc1ccc(OCC(=O)NNC(=O)c2cccc(C)c2)cc1 : 97

Then there is this compound:
Input: Provide only the value of recorded GTP binding activity for CC(C)(C)n1nc2c(c1NC(=O)c1cc3ccccc3o1)CSC2
Output: 96

* * *

- assay system: GTPase HRas (Homo sapiens) (UniProt P01112)
- Sequence (P01112 whole entry, looked up): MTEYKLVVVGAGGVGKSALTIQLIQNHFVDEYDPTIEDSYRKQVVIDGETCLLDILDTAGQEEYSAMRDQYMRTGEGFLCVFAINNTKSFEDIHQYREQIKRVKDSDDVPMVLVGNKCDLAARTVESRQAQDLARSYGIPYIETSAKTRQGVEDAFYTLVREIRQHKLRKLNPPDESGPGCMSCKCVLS
- assay name: HRas wt fluorescent GTP binding changes, either direction – biochemical, wildtype, bead-based flow cytometry, multiplex, primary screen (AID 759);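 also: 0% = unlabeled GTP competition control and 100% = no-compound control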
- particulars: GST-Ras wt beads, Bodipy-FL-GTP binding, at 10 µM, actives lie on both sides
In all, about 190,000 compounds went through this assay and about 270 (0.14%) were called active. Inconclusive results (about 2%) are left out.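 The calls were made as follows: active = GTP binding activity at least 20% away from the 100% baseline, either lowered as inhibitor or raised as activator; inconclusive = flagged as likely green fluorescent, judged across all proteins in the well; inactive = the rest.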 The sample holds actives, similar compounds and a random draw of the others, so the mix is not that of the screen.
Your response should consist of one outcome taken from true (1) for active, false (0) for inactive

O=C(CN(C(=O)c1csnn1)c1cccc(F)c1)NCc1ccc(F)cc1 : false (0)
Cc1sc2c(c1C)c(=O)n(-c1ccccc1)c(=O)n2CC(=O)NCC1CCCO1 (stereo not drawn) : false (0)
Cc1ccc(SCCC(=O)NCc2ccccn2)cc1 : false (0)
Cc1ccc(C(=O)O)cc1NC(=O)c1ccc(Cn2nc(C)c(Cl)c2C)o1 : false (0)

Input: Call for entry C=CCNc1nc(Nc2ccc(Cl)cc2)nc(OC)n1 :
Output: false (0)

Input: Call for entry COc1cccc(OC)c1C(=O)NC(=S)NCc1ccco1 :
Output: false (0)

Input: Call for entry COc1ccc(S(=O)(=O)N2CCOCC2)cc1C(=O)Nc1nc2ccccc2s1 :
Output: true (1)

Input: Call for entry CCCCn1c(N)c(N(CC)C(=O)/C=C/c2ccco2)c(=O)[nH]c1=O :
Output: false (0)

* * *

- assay system: GTPase HRas (Homo sapiens)
- assay name: HRas wt fluorescent GTP binding changes, either direction – biochemical, wildtype, bead-based flow cytometry, multiplex, primary screen (AID 759);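 also: 0% = unlabeled GTP competition control and 100% = no-compound control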
- particulars: GST-Ras wt beads, Bodipy-FL-GTP binding, at 10 µM, actives lie on both sides
In all, about 190,000 compounds went through this assay and about 270 (0.14%) were called active. Another 2% or so got no clear call; they are omitted. The sample as a whole holds a higher share of actives than the screen did.
property measured: GTP binding activity

Examples with their reported GTP binding activity follow.
CC(C)(C)C(=O)N(Cc1ccccc1)c1ccccn1 : 95% (inactive)
CSc1ccc(/C=N\NC(=O)CC(=O)NC(C)C)cc1 : 94% (inactive)

Input: Provide only the value of recorded GTP binding activity for CC1(C)CC(=O)C(CC(=O)N2CCC(Cc3ccccc3)CC2)C(=O)C1
Output: 96% (inactive)

Input: Provide only the value of recorded GTP binding activity for COc1ccc(/C=C/CN2CCN(Cc3ccc(C)cc3)C(CCO)C2)cc1 (stereo not drawn)
Output: 105% (inactive)

Input: Provide only the value of recorded GTP binding activity for CC1Cc2ccccc2N1C1=CC(=O)CC(C)(C)C1 (stereo not drawn)
Output: 99% (inactive)

Input: Provide only the value of recorded GTP binding activity for Cc1ccc(S(=O)(=O)N(C)c2ccc(OCC(=O)NC3=NCCS3)cc2)cc1
Output: 99% (inactive)

Input: Provide only the value of recorded GTP binding activity for O=C(NC(=S)Nc1ccc(S(=O)(=O)N2CCOCC2)cc1)c1ccccc1[N+](=O)[O-]
Output: 95% (inactive)

Input: Provide only the value of recorded GTP binding activity for O=C(NCc1nnc(SCC(=O)N2CCC(Cc3ccccc3)CC2)o1)c1ccco1
Output: 98% (inactive)

Input: Provide only the value of recorded GTP binding activity for Cc1ccc(Nc2c(F)c(F)c(F)c(F)c2C(=O)O)c(C)c1
Output: 124% [activator] (active)

Input: Provide only the value of recorded GTP binding activity for COc1ccc(/C=C(\C#N)C(=O)ONC2=NCCCCC2)cc1
Output: 97% (inactive)

Input: Provide only the value of recorded GTP binding activity for Cc1cccc(NC(=S)Nc2ccc(Cl)c(Cl)c2)c1
Output: 95% (inactive)

Input: Provide only the value of recorded GTP binding activity for CC(=O)NC1C(OCc2ccccc2)OC(COC(C)=O)C(OC(C)=O)C1OC(C)=O (stereo not drawn)
Output: 102% (inactive)

Input: Provide only the value of recorded GTP binding activity for S=c1ccc2ccccc2[nH]1
Output: 98% (inactive)

Input: Provide only the value of recorded GTP binding activity for O=C(COC(=O)c1cnccn1)Nc1cccc2ccccc12
Output: 96% (inactive)

Input: Provide only the value of recorded GTP binding activity for CCc1ccc(Nc2nnc(SCC(=O)c3ccc4c(c3)NC(=O)CO4)s2)cc1
Output: 99% (inactive)
